tested on: ATP; assay: switch fluorescence ratio, 500 uM ATP over buffer (Cy3 cluster intensity, sum of 5 cycles each) (fold (ratio)); higher = stronger signal-on switching upon ATP binding; sequences stand for … in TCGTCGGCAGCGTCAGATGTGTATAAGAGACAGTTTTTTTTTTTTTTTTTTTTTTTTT…TC; details: aptamer strand: ATP DNA aptamer (quencher-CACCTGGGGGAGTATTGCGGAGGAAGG + anchor), 100 nM annealed; ATP concentration: 500 uM;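 also: ATP exposure 15 min at 22 °C before imaging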
Everything with switch fluorescence ratio lower than 1 is NOT MET; everything else, including exactly 1, is MET.

Sample answers from the record:
>>> group("CTCACTGCAT")
"MET"
>>> group("GCTCGCGTGG")
"NOT MET"
>>> group("CATGCCAAGC")
"MET"
>>> group("ATGGTAAGAC")
"MET"

Exercise: Does switch fluorescence ratio meet or surpass 1 for `CGGGCCCCGG` ?
Solution: MET

Exercise: # repeat for `CCTATGCGGT`
Solution: MET

Exercise: # repeat for `AGAAACCGTA`
Solution: MET

Exercise: # repeat for `CGCCGTGTCG`
Solution: NOT MET

Exercise: # repeat for `CGGCAATGGT`
Solution: MET

Exercise: # repeat for `AACAGGTACT`
Solution: MET

* * *

system: ATP; experiment: switch fluorescence ratio, 500 uM ATP over buffer (Cy3 cluster intensity, sum of 5 cycles each) (fold (ratio)); higher = stronger signal-on switching upon ATP binding; sequences stand for … in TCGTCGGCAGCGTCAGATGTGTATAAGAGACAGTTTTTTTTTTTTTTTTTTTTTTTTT…TC; conditions: aptamer strand: ATP DNA aptamer (quencher-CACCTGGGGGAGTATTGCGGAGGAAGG + anchor), 100 nM annealed; ATP concentration: 500 uM;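 also: ATP exposure 15 min at 22 °C before imaging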
Recorded switch fluorescence ratio for the following sequences
Answer with a bare number; do not write a unit.

>>> experimental_value("CGTGTTACGG")
0.994
>>> experimental_value("TTATATTGGT")
0.974
>>> experimental_value("GCATAAGGGT")
1.01
>>> experimental_value("AAGGGAGGGC")
0.96
>>> experimental_value("GCTCGTAACT")
1

Exercise: switch fluorescence ratio lookup needed for `TAAAAGACGG` , thanks.
Solution: 1.08

Exercise: # repeat for `CGGCAGCGGG`
Solution: 1.03

Exercise: # repeat for `ACTATCTTTG`
Solution: 0.992

Exercise: # repeat for `CGTTGGATT`
Solution: 0.986

Exercise: # repeat for `ATTCGAGTGT`
Solution: 0.984

* * *

Recorded switch fluorescence ratio for the following sequences
test system: ATP; experiment: switch fluorescence ratio, 500 uM ATP over buffer (Cy3 cluster intensity, sum of 5 cycles each) (fold (ratio)); higher = stronger signal-on switching upon ATP binding; sequences stand for … in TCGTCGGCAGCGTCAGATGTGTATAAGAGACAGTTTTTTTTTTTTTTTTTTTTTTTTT…TC; details: aptamer strand: ATP DNA aptamer (quencher-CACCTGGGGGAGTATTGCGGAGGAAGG + anchor), 100 nM annealed; ATP concentration: 500 uM;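 also: ATP exposure 15 min at 22 °C before imaging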
Answer with a bare number; do not write a unit.

Observe how each entry below is paired with its result.
>>> experimental_value("CTAGTGGGTT")
0.973
>>> experimental_value("GTTTTGCCTC")
0.984
>>> experimental_value("TAACCGGTGC")
1.06
>>> experimental_value("AATCGGTCGT")
0.994
>>> experimental_value("GATGGAGTTT")
1.03

Exercise: switch fluorescence ratio lookup needed for `GGTGTATGGT` , thanks.
Solution: 0.985

Exercise: # repeat for `AGATTCGTCA`
Solution: 0.988
